# Tested on: COLO 205 colon
# EXPERIMENT DESCRIPTION: NCI tumour cell line growth inhibition, 48 h; in the data active means GI50 below about 0.43 µM; inactive means the rest
Give one outcome, nothing more. List: active, inactive

MOLECULE	CLASSIFICATION
COc1ccc(/C=C2\CCCC3=C2NC(C)=NC3c2ccc(OC)c(OC)c2)cc1OC (centres undefined)	inactive
COc1ccccc1-c1c(C)nn2c(NCc3ccccn3)cc(C)nc12	inactive
CCN1C(=O)N(CC)C2C1NN=c1s/c(=C3\C(=O)N(C)c4ccccc43)c(=O)n12 (centres undefined)	inactive

Next molecule, please.
Challenge: Test call for this molecule, please: `CCCCC[C@H]1C/C=C2/C(=O)C(Cl)=C[C@@H]2C/C=C\CCCC(=O)O[C@@H](CCCCC)C/C=C2/C(=O)C(Cl)=C[C@@H]2C/C=C\CCCC(=O)O1`
Response given: active

###

# System: HS 578T breast
# EXPERIMENT DESCRIPTION: NCI tumour cell line growth inhibition, 48 h; in the data active = GI50 below about 0.43 µM; inactive = the rest
Give one outcome, nothing more. List: active, inactive

COMPOUND	CLASSIFICATION
COc1cc2cc(Oc3ccc(NC(=O)c4ccc(Cl)c(C(F)(F)F)c4)cc3)c(C)nc2cc1OC	inactive
CC(=O)OC1C2(CC3N4C(=O)C5(CO)SSC4(CC31O)C(=O)N5C)OC(C)C(C)(C)C2=O (stereo not given)	active
Clc1ccc2nc(Oc3ccccc3)cnc2c1	inactive

Challenge: Test call for this compound, please: `NCc1ccc(-n2c(-c3nonc3N)nc3cnccc32)cc1`
Response given: inactive

Challenge: Continue with `Cc1cn2c(/C=N/N/C(N)=N\N)c(-c3ccc(Cl)c([N+](=O)[O-])c3)nc2s1`
Response given: inactive

Challenge: Continue with `Nc1nc(OCc2ccccc2)nc2[nH]ncc12`
Response given: inactive

Challenge: Continue with `CCCCC[C@H]1C/C=C2/C(=O)C(Cl)=C[C@@H]2C/C=C\CCCC(=O)O[C@@H](CCCCC)C/C=C2/C(=O)C(Cl)=C[C@@H]2C/C=C\CCCC(=O)O1`
Response given: inactive

Challenge: Continue with `CCOC(=O)c1cnn(-c2ccnc3c(C(F)(F)F)cccc23)c1N`
Response given: inactive

Challenge: Continue with `COc1ccc(-c2ccc(/C=N/n3c(COc4ccc(Cl)cc4)n[nH]c3=S)o2)c([N+](=O)[O-])c1`
Response given: inactive

Challenge: Continue with `Fc1ccc(Nc2nc(NCCNc3ccnc4cc(Cl)ccc34)nc(N3CCOCC3)n2)cc1`
Response given: inactive

###

Item-by-item account of TGI
# Tested on: CAKI-1 renal
# EXPERIMENT DESCRIPTION: NCI tumour cell line growth inhibition, 48 h
Kindly provide the numeric value in µM only, without the unit symbol.

Challenge: Can you look up the measured TGI of `CN(C)c1ccc(/C=C/c2cc[n+](C)c3ccccc23)cc1` for me?
Response given: 12.2

Challenge: Continue with `COc1cc(/C=C(/c2ccccc2)[N+](=O)[O-])c(OC)c2c1OCO2`
Response given: 3.95

###

# System: OVCAR-5 ovarian
# EXPERIMENT DESCRIPTION: NCI tumour cell line growth inhibition, 48 h
Item-by-item account of TGI

COMPOUND	TGI
CC(C)(C)OC(=O)CN1CCNCCN(CC(=O)OC(C)(C)C)CC1	> 100 µM
CC1CC[C@@]2(OC1)OC1C[C@H]3[C@@H]4CC[C@H]5CC(OC6OC(CO)C(OC7OC(CO)C(O)C(O)C7O)C(O)C6O)CCC5(C)[C@H]4CCC3(C)C1[C@@H]2C (some centres undefined)	17.2 µM

Challenge: Can you look up the measured TGI of `Cn1cc(-c2ccc3c(c2)CCN3C(=O)Cc2cccc(C(F)(F)F)c2)c2c(N)ncnc21` for me?
Response given: 30.2 µM
